All figures here come from the supplement of paper PMC10307832.

- Tested on: NCI-H1993
- experimental-protocol: relative viability (nuclei count vs DMSO), 5 days (fraction); higher = more cells survive
- condition-set: first compound 0.03162 µM
# relative viability listing for each entry below
Lab note: write the figure by itself, no unit.

compound	experimental-endpoint	data-value
Cc1cn(-c2cc(NC(=O)c3ccc(C)c(Nc4nccc(-c5cccnc5)n4)c3)cc(C(F)(F)F)c2)cn1 [Nilotinib] + Cc1nc(Nc2ncc(C(=O)Nc3c(C)cccc3Cl)s2)cc(N2CCN(CCO)CC2)n1 [Dasatinib] (partner 0.075 µM)	relative viability	0.516

Would you kindly look at the next entry?
## Input API: value(readout= relative viability, system= NCI-H1993, query= Cc1cn(-c2cc(NC(=O)c3ccc(C)c(Nc4nccc(-c5cccnc5)n4)c3)cc(C(F)(F)F)c2)cn1 [Nilotinib] + CCNC(=O)c1noc(-c2cc(C(C)C)c(O)cc2O)c1-c1ccc(CN2CCOCC2)cc1 [Luminespib] (partner 0.01 µM) )
## Output 0.773

* * *

- Test system: LOU-NH91
- experimental-protocol: relative viability (nuclei count vs DMSO), 5 days (fraction); higher = more cells survive
- condition-set: first compound 6.325 µM
// classify: if (relative viability < 0.5) label 1 else label 0

compound	system-tested	answer-label
Cc1csc(=NC2CCCCC2)n1/N=C/c1ccc(O)c(O)c1O [MIM1] + Nc1nc2[nH]cc(CCc3ccc(C(=O)N[C@@H](CCC(=O)O)C(=O)O)cc3)c2c(=O)[nH]1 [Pemetrexed] (partner 0.2 µM)	LOU-NH91	label 1

## Input Below 0.5 on relative viability? Entry Cc1csc(=NC2CCCCC2)n1/N=C/c1ccc(O)c(O)c1O [MIM1] + O=C(c1cc(Cc2n[nH]c(=O)c3ccccc23)ccc1F)N1CCN(C(=O)C2CC2)CC1 [Olaparib] (partner 8 µM)
## Output label 0

## Input Below 0.5 on relative viability? Entry Cc1csc(=NC2CCCCC2)n1/N=C/c1ccc(O)c(O)c1O [MIM1] + CCNC(=O)c1noc(-c2cc(C(C)C)c(O)cc2O)c1-c1ccc(CN2CCOCC2)cc1 [Luminespib] (partner 0.01 µM)
## Output label 1

## Input Below 0.5 on relative viability? Entry Cc1csc(=NC2CCCCC2)n1/N=C/c1ccc(O)c(O)c1O [MIM1] + C[C@@H](Oc1cc(-c2cnn(C3CCNCC3)c2)cnc1N)c1c(Cl)ccc(F)c1Cl [Crizotinib] (partner 1 µM)
## Output label 0

* * *

# relative viability listing for each entry below
- System: LC-2-ad
- experimental-protocol: relative viability (nuclei count vs DMSO), 5 days (fraction); higher = more cells survive
- condition-set: first compound 0.002 µM
Lab note: write the figure by itself, no unit.

Study these solved cases before continuing.
compound	data-value
CCNC(=O)c1noc(-c2cc(C(C)C)c(O)cc2O)c1-c1ccc(CN2CCOCC2)cc1 [Luminespib] + Cc1cc(Nc2cc(N3CCN(C)CC3)nc(Sc3ccc(NC(=O)C4CC4)cc3)n2)n[nH]1 [Tozasertib] (partner 0.1 µM)	0.482
CCNC(=O)c1noc(-c2cc(C(C)C)c(O)cc2O)c1-c1ccc(CN2CCOCC2)cc1 [Luminespib] + CS(=O)(=O)N1CCN(Cc2cc3nc(-c4cccc5[nH]ncc45)nc(N4CCOCC4)c3s2)CC1 [Pictilisib] (partner 1 µM)	0.526
CCNC(=O)c1noc(-c2cc(C(C)C)c(O)cc2O)c1-c1ccc(CN2CCOCC2)cc1 [Luminespib] + CC(=O)c1c(C)c2cnc(Nc3ccc(N4CCNCC4)cn3)nc2n(C2CCCC2)c1=O [Palbociclib] (partner 0.5 µM)	0.473

## Input API: value(readout= relative viability, system= LC-2-ad, query= CCNC(=O)c1noc(-c2cc(C(C)C)c(O)cc2O)c1-c1ccc(CN2CCOCC2)cc1 [Luminespib] + Cc1nc(Nc2ncc(C(=O)Nc3c(C)cccc3Cl)s2)cc(N2CCN(CCO)CC2)n1 [Dasatinib] (partner 0.075 µM) )
## Output 0.583

## Input API: value(readout= relative viability, system= LC-2-ad, query= CCNC(=O)c1noc(-c2cc(C(C)C)c(O)cc2O)c1-c1ccc(CN2CCOCC2)cc1 [Luminespib] + C[C@@H](Oc1cc(-c2cnn(C3CCNCC3)c2)cnc1N)c1c(Cl)ccc(F)c1Cl [Crizotinib] (partner 1 µM) )
## Output 0.48

## Input API: value(readout= relative viability, system= LC-2-ad, query= CCNC(=O)c1noc(-c2cc(C(C)C)c(O)cc2O)c1-c1ccc(CN2CCOCC2)cc1 [Luminespib] + CC(C)C[C@H](NC(=O)[C@H](Cc1ccccc1)NC(=O)c1cnccn1)B(O)O [Bortezomib] (partner 0.002 µM) )
## Output 0.733
